Let's look at some compounds and their measured IC50.
Target: PDE1A (Homo sapiens, UniProt P54750)
Sequence (P54750 whole entry): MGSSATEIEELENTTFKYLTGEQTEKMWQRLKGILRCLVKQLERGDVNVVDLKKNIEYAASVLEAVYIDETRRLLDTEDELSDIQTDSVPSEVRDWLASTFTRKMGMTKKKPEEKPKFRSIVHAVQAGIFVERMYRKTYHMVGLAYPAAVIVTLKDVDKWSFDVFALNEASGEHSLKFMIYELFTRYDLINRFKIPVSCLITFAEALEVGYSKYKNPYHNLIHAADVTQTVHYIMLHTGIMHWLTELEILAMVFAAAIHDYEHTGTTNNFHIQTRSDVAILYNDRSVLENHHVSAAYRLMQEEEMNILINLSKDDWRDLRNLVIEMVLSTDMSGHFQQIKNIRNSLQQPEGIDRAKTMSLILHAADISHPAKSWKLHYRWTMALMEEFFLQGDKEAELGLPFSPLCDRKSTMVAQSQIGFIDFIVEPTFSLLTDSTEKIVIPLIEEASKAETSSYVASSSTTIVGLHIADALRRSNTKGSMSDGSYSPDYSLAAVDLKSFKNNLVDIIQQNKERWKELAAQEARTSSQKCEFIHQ
Assay: PDE1 inhibition assay (SPA), PDE1A
Type: biochemical
Settings: concentration required to reach 50% inhibition of the enzyme; 15 nM tritium labelled cAMP; read-out: PDE1A inhibition (nM or %): IC50

The cases that follow already have their IC50 on record.
[
  {
    "compound": "CCCCC(CC)c1nnc2c(=O)n(Cc3cccc(F)c3)ccn12 (stereo not drawn)",
    "tested-system": "PDE1A (Homo sapiens, UniProt P54750)",
    "measurement-type": "IC50",
    "result": "3200 nM"
  },
  {
    "compound": "CCCc1nnc2c(=O)n(Cc3cccc(F)c3)ccn12",
    "tested-system": "PDE1A (Homo sapiens, UniProt P54750)",
    "measurement-type": "IC50",
    "result": "1100 nM"
  },
  {
    "compound": "O=c1c2nnc(C3CCOCC3)n2cc(Cc2ccc(-c3ccccc3)cc2)n1CC1CCCCC1",
    "tested-system": "PDE1A (Homo sapiens, UniProt P54750)",
    "measurement-type": "IC50",
    "result": "0.33 nM"
  },
  {
    "compound": "CCCc1nnc2c(=O)n(CC3CCC(C)CC3)ccn12 (single isomer, unassigned)",
    "tested-system": "PDE1A (Homo sapiens, UniProt P54750)",
    "measurement-type": "IC50",
    "result": "111 nM"
  },
  {
    "compound": "CCCCCCn1ccn2c(C3CCOCC3)nnc2c1=O",
    "tested-system": "PDE1A (Homo sapiens, UniProt P54750)",
    "measurement-type": "IC50",
    "result": "1260 nM"
  }
]

Now take the following compound into account.
Output IC50 of CCCc1nnc2c(=O)n(Cc3ccc(C)cc3)ccn12
1000 nM

---

Target: PDE1A (Homo sapiens)
Experiment: PDE1 inhibition assay (SPA), PDE1A
Type: biochemical
Details: 1 h, % inhibition of the enzyme at a concentration of 10 micro molar of the compound; read-out: PDE1A inhibition (nM or %): % inhib
Tag: Met if measured inhibition at 10 µM is not below 50%, Not met if it is.

[
  {
    "compound": "CCCc1nnc2c(=O)n(Cc3ccccc3C(F)(F)F)ccn12",
    "category": "Not met"
  }
]

Check this compound for inhibition at 10 µM at or above 50%: CCCc1nnc2c(=O)n(CC3COC3)ccn12
Not met

Check this compound for inhibition at 10 µM at or above 50%: CC(C)CCn1ccn2c(C3CCOCC3)nnc2c1=O
Not met

Check this compound for inhibition at 10 µM at or above 50%: O=c1c2nnc(C3COC3)n2ccn1Cc1cccc(F)c1
Met

Check this compound for inhibition at 10 µM at or above 50%: CCCc1nnc2c(=O)n(CC3CCOCC3)ccn12
Not met

Check this compound for inhibition at 10 µM at or above 50%: O=c1c2nnc(CC3CCCO3)n2ccn1Cc1cccc(F)c1 (single isomer, unassigned)
Met

Check this compound for inhibition at 10 µM at or above 50%: CCCc1nnc2c(=O)n(Cc3ccccc3C)ccn12
Met

---

Target: PDE1A (Homo sapiens, UniProt P54750)
Assay: PDE1 inhibition assay (SPA), PDE1A
Type: biochemical
Conditions: concentration required to reach 50% inhibition of the enzyme; 15 nM tritium labelled cAMP; read-out: PDE1A inhibition (nM or %): IC50
measurement-type: IC50 (nM)
Kindly provide the numeric value in nM only, without the unit symbol.

[
  {
    "compound": "O=c1c2nnc(CCF)n2ccn1Cc1cccc(F)c1",
    "readout-number": 2900
  },
  {
    "compound": "CCCc1nnc2c(=O)n(CC3CCC(F)(F)CC3)ccn12",
    "readout-number": 450
  },
  {
    "compound": "CCCc1nnc2c(=O)n(CC3(C)CCCCC3)ccn12",
    "readout-number": 1300
  },
  {
    "compound": "CCCc1nnc2c(=O)n(CC3C4CC5CC(C4)CC3C5)ccn12 (stereo not shown)",
    "readout-number": 179
  }
]

Output IC50 of CC(F)(F)c1nnc2c(=O)n(Cc3cccc(F)c3)ccn12
2500

Output IC50 of CCCc1nnc2c(=O)n(Cc3cccc(F)c3)cc([C@@H]3CCOC3)n12 (single isomer, unassigned)
1780

The reported measurements were obtained from patent US10150771B2.
